- target-entity: prefusion conformation-stabilized SARS-CoV-2 spike ectodomain (S2Pecto) protein (SARS-CoV-2, UniProt P0DTC2 14-1213; P10104 458-484)
- method-notes: ELISA on coated S2Pecto
reported-property: EC50 (ng/mL)
Answers are plain numbers, in ng/mL.

Field: example entries. Status: answers known.
[[record]]
binder = "COV2-2068 (antibody, V domains shown) VH: EVQLVESGGGLVQPGGSLRLSCAASGFTVSSNYMSWVRQAPGKGLEWVSVIYPGGSAFYADSVKGRFTISRHNSNNTLCLQMNSLRTEDTAVYYCARSYDILTGYRDAFDIWGQGTMVTVSS VL: QSVLTQPPSVSGAPGQRVTISCTGSSSNIGSGSDVHWYQQLPGTAPKLLIYGNTNRPSGVPDRFSGSKSGTSASLAITGLQAEDEADYYCQSYDSRLSGFVVFGGGTKLTVL"
reported_property = "EC50"
reported_value = 7.4

[[record]]
binder = "COV2-2082 (antibody, V domains shown) VH: EVQLVESGGGVVRPGGSLRLSCAASGFIFDDYDMTWVRQAPGKGLEWVSGISWNGGNTGYADSVKGRFTISRDNAKNSLYLQMNSLRAEDTALYHCAVIMSPIPRYSGYDWAGGAFDIWGQGTMVTVSS VL: SSELTQDPAVSVALGQTVRITCQGDSLRSYYASWYQQKPGQVPILVIYDKNNRPSGIPDRFSGSSSGNTASLTITGAQAEDEADYYCNSRDSSGNAVVFGGGTKLTVL"
reported_property = "EC50"
reported_value = 1.1

[[record]]
binder = "COV2-2113 (antibody, V domains shown) VH: EVQLVESGGGLIQPGGSLRLSCAASEVTVSSNYMSWVRQAPGKGLEWVSLIYSGGTTYYADSVKGRFTISRDNSKNTLYLQMNSLRAEDTAVYYCARDFLRWHDLWGQGTLVTVSS VL: DIQMTQSPSSLSASVGDRVTITCQASQDINNYLNWYQQKPGKAPKLLIYDASNLETGVPLRFSGSGSGTDFIFTISSLQPEDIATYYCQQYDNLPPVFGGGTKVEIK"
reported_property = "EC50"
reported_value = 1.8


Now for a further binder.
In: Given the entry COV2-2103 (antibody, V domains shown) VH: EVQLVESGGGLVQPGGSLRLSCAASGFTFSRHWMTWVRQAPGKGLEWVANIKQDGSEKYYVDSVKGRLTISRDNAKNSLYLQMNSLRAEDTAVYYCARLGFYYGGADYWGQGTLVTVSS VL: NFMLTQPHSVSESPGKTVTISCTGSSGSIASNYVQWYQQRPGSAPTTVISEDNQRPSGVPDRFSGSIDSSSNSASLTISGLKTEDEADYYCQSYDGINRAWVFGGGTKLTVL , report its measured EC50.
Out: 2.9

Where do the numbers come from? From patent US20230122364A1.
